Data provenance: ChEMBL document CHEMBL1131916

Biological target: B2 bradykinin receptor (Cavia porcellus, UniProt O70526)
Sequence (O70526 whole entry): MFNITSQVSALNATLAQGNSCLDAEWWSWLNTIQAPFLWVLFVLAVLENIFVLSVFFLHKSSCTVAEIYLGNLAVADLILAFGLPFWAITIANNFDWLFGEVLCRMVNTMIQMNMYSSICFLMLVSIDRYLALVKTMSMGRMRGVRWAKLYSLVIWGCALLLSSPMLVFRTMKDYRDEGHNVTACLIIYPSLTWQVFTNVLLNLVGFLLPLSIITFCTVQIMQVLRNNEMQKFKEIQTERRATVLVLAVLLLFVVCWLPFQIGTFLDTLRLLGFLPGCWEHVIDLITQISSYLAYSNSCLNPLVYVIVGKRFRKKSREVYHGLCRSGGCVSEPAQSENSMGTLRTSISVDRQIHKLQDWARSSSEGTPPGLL
measuredParameter: IC50 (nM)

[P] COc1ccc(N(C)C(=O)CNC(=O)/C=C/c2ccc(NC(C)=O)nc2)c(SC)c1COc1cccc2ccc(C)nc12
[Q] Cc1ccc2cccc(OCc3c(Cl)ccc(N(C)C(=O)CNC(=O)/C=C/c4ccc(C(F)(F)F)cc4)c3C#N)c2n1
[R] Cc1ccc2cccc(OCc3c(Cl)ccc(N(C)C(=O)CNC(=O)NCCCC(=O)O)c3C#N)c2n1
(Q) // ascending sort on IC50 for the entries above Quick reminder: the answer is the labels in the order asked.
(A) Q, P, R
(Q: 1.2 nM, P: 5.2 nM, R: 25.7 nM)
